Test: CSF exposure in c57/B16 mice after i.p. dosing
Conditions: male, c57/B16, mouse, CSF, ip, 10 mg/kg
measurement-kind: Cmax (ng/mL)
Numeric answer only, unit ng/mL assumed.

In plain terms, `CN(C)CCc1c[nH]c2ccc(C[C@H]3COC(=O)N3)cc12` has a documented Cmax of 17.8

----------
Biological target: rat recombinant 5-HT1b (r5-HT1b) receptors (Rattus norvegicus, UniProt P28564)
Sequence (P28564 whole entry): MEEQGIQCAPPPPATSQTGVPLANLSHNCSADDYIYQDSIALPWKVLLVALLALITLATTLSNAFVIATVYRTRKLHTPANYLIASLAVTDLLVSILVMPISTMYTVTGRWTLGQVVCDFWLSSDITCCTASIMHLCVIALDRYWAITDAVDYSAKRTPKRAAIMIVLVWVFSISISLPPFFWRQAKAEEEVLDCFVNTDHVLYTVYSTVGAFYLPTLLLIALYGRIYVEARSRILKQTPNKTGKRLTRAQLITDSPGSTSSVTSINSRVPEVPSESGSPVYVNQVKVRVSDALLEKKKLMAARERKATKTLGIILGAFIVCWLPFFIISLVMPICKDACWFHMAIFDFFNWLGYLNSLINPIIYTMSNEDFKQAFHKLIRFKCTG
Experiment: SPA-based 35S-GTPγS binding assay, rat 5-HT1b
Conditions: ten concentrations in duplicate
measurement-kind: EC50

The cases that follow already have their EC50 on record.
compound: CNS(=O)(=O)CCc1ccc2[nH]cc(C3CCN(C)CC3)c2c1 [Naratriptan, naratriptan]
measurement-kind: EC50
result: 7.4 nM
--
compound: CN1CCC[C@@H]1Cc1c[nH]c2ccc(CCS(=O)(=O)c3ccccc3)cc12 [Eletriptan, eletriptan]
measurement-kind: EC50
result: 120 nM
--
compound: CN(C)CCc1c[nH]c2ccc(C[C@H]3COC(=O)N3)cc12 [Zolmitriptan, zolmitriptan]
measurement-kind: EC50
result: 33 nM

In plain terms, CN(C)CCc1c[nH]c2ccc(Cn3cncn3)cc12 [Rizatriptan, rizatriptan] has a documented EC50 of 210 nM

----------
Experiment: CSF exposure in c57/B16 mice after i.p. dosing
Details: male, c57/B16, mouse, CSF, ip, 10 mg/kg
# Kp >= 0.008 gives Fulfilled, anything below gives Not fulfilled

Past entries and their recorded results:
structure-smiles-string: CN[C@@H]1CCc2[nH]c3ccc(C(N)=O)cc3c2C1
group-label: Not fulfilled
--
structure-smiles-string: CN(C)CCc1c[nH]c2ccc(C[C@H]3COC(=O)N3)cc12
group-label: Not fulfilled
--
structure-smiles-string: CNS(=O)(=O)CCc1ccc2[nH]cc(C3CCN(C)CC3)c2c1
group-label: Fulfilled

Does the compound `CN1CCC[C@@H]1Cc1c[nH]c2ccc(CCS(=O)(=O)c3ccccc3)cc12` have recorded Kp that is 0.008 or more? Not fulfilled

Does the compound `CN(C)CCc1c[nH]c2ccc(Cn3cncn3)cc12` have recorded Kp that is 0.008 or more? Fulfilled

----------
Assay: CSF exposure in c57/B16 mice after i.p. dosing
Conditions: male, c57/B16, mouse, CSF, intraperitoneal, 10 mg/kg
measurement-kind: Kp
# answer = number (no unit)

In plain terms, `CN(C)CCc1c[nH]c2ccc(C[C@H]3COC(=O)N3)cc12` has a documented Kp of 0.0076

----------
Test: CSF exposure in c57/B16 mice after i.p. dosing
Settings: c57/B16 mouse; 10 mg/Kg i.p.
Measured c57/B16 mouse CSF Cmax (10 mg/Kg, i.p.) values are reported for all entries that follow.
Numeric answer only, unit ng/mL assumed.

The cases that follow already have their c57/B16 mouse CSF Cmax (10 mg/Kg, i.p.) on record.
structure-smiles-string: CN(C)CCc1c[nH]c2ccc(C[C@H]3COC(=O)N3)cc12
c57/B16 mouse CSF Cmax (10 mg/Kg, i.p.) [ng/mL]: 17.83
--
structure-smiles-string: CN[C@@H]1CCc2[nH]c3ccc(C(N)=O)cc3c2C1
c57/B16 mouse CSF Cmax (10 mg/Kg, i.p.) [ng/mL]: 12.52
--
structure-smiles-string: CNS(=O)(=O)CCc1ccc2[nH]cc(C3CCN(C)CC3)c2c1
c57/B16 mouse CSF Cmax (10 mg/Kg, i.p.) [ng/mL]: 79.56
--
structure-smiles-string: CN(C)CCc1c[nH]c2ccc(Cn3cncn3)cc12
c57/B16 mouse CSF Cmax (10 mg/Kg, i.p.) [ng/mL]: 90.20

In plain terms, `CN1CCC[C@@H]1Cc1c[nH]c2ccc(CCS(=O)(=O)c3ccccc3)cc12` has a documented c57/B16 mouse CSF Cmax (10 mg/Kg, i.p.) of 13.46

----------
Reported values: Ki for 5-HT1b receptor (Homo sapiens, UniProt P28222), one per item.
Numeric answer only, unit nM assumed.

structure-smiles-string: CNCCc1c[nH]c2ccc(C[C@H]3COC(=O)N3)cc12
Ki [nM]: 1.18
--
structure-smiles-string: CNS(=O)(=O)CCc1ccc2[nH]cc(C3CCN(C)CC3)c2c1
Ki [nM]: 0.95
--
structure-smiles-string: CN1CCC[C@@H]1Cc1c[nH]c2ccc(CCS(=O)(=O)c3ccccc3)cc12
Ki [nM]: 4.48

Then this compound:
The reported 5-HT1b receptor (Homo sapiens, UniProt P28222) Ki of `CN(C)CCc1c[nH]c2ccc(C[C@H]3COC(=O)N3)cc12` is 3.34

----------
Biological target: human 5-HT1b (h5-HT1b) receptors (Homo sapiens, UniProt P28222)
Sequence (P28222 whole entry): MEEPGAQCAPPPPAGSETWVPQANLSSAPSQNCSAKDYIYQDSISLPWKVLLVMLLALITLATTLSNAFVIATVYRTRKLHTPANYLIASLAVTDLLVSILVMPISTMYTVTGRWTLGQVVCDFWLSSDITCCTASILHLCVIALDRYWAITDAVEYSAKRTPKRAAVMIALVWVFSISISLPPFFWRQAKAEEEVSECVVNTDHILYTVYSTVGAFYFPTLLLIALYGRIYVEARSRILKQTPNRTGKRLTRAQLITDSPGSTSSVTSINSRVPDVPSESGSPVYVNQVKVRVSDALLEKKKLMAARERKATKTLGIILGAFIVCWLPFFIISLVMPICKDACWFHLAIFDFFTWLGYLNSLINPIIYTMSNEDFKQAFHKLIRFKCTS
Test: SPA-based 35S-GTPγS binding assay, human 5-HT1b
Conditions: ten concentrations in duplicate
measurement-kind: EC50 (nM)
Numeric answer only, unit nM assumed.

The cases that follow already have their EC50 on record.
compound: CN(C)CCc1c[nH]c2ccc(C[C@H]3COC(=O)N3)cc12 [Zolmitriptan, zolmitriptan]
system-under-test: human 5-HT1b (h5-HT1b) receptors (Homo sapiens, UniProt P28222)
quantity-unit: nM
EC50: 4
--
compound: CNS(=O)(=O)CCc1ccc2[nH]cc(C3CCN(C)CC3)c2c1 [Naratriptan, naratriptan]
system-under-test: human 5-HT1b (h5-HT1b) receptors (Homo sapiens, UniProt P28222)
quantity-unit: nM
EC50: 1.2

In plain terms, CN1CCC[C@@H]1Cc1c[nH]c2ccc(CCS(=O)(=O)c3ccccc3)cc12 [Eletriptan, eletriptan] has a documented EC50 of 8.8
